test: label from the status in PepcDB records
ASSAY READOUT: protein production

Some entries whose results are on file:
Reported protein production ( MHLQKLKNIVWTKRIGHLFERVTDIENIKRAIKRAAKRKTHRPSVQRILNDIDSYARKIQEMLVNETFVPAKYTIREIYDGIKKKKRVIAVPRFYPDQCIHHAFVQVFREIVEHGADKFSCGCVPGKGTDGARKMIKHWIKSDPIGTSKVLKLDVHHCYPTMNHEALRQKLEKKIKDRKLLNLAFKLIASYQQPMADHTRMLPEVDAVGIPVGLYTSPWFCNFFFQDIDHMIAEKTGAKHHTRYVDDIVLFDSNKRRLHKALRMIADELRKVKMQVKANWQVFPLKDRPLDFLGYKFHAGAWTTLRKSIMFRISHKAKKISKISYISPTNASGMISYMGFIYNSDSWNFWKERVKPFINLKLLKGVVSNENRKQHQAACAA ) = failed

Reported protein production ( MKVIMTTKVDKASMNIMNKLIENFGFKETEYVFDGNPVYKRGDVLILTTNDEMIYYDYLDREIENQLGFKPEIIAFASRHSSKQKLPALTTHVTGNWGKAMYGGKDESFAVAIPSAMKLSLLKMSELNDLGWTVCYEATHHGPTELEVPSFFIEIGSSEEEWINDRAGEIIAETIIYVLDNYEKGRSKFKVALGIGGGHYAPKQTKRALEGDLAFGHILPKYAQPVSRDVMIKALNRFGEKVEAIYVDWKGSRGETRQLAKSLAQELGLEFIKD ) = not failed

Reported protein production ( MTNDFKKEKKEDYFVNLKAISTEVLQEKVQDNAWVIVDTRLNDAYNGWKLDGVKRGGHIKGAVDFSANWLSVYSDRKDEVLEQALKTKRIDLDKNIVLYDANGKDALVVADYLSKKGYKYLYKYDIKQWADDENLPMERYKNYQMIVPLEHHHHHH ) = not failed

Reported protein production ( MVRVGMRAAPRVSLEALKAALGGLKLSEAKVYLITDWQDKRDQARYALLLHTGKKDLLVPDAFGPAFPGGEEALSELVGLLLAQGARRFYEAVVSPGEMTALLDLPPEELLKRVMAIANPTDPGIYLKRAA ) = not failed

Reported protein production ( MEHTWMMKYFAEFFGTIILVVFGNGAVANSVLTKTGGNSHDGQANGGWLLIAFSFGFGVMLPAMMFGSISGNHLNPAVTLAQACAGAFPWNQVLPYILVQMLGAIVGQLLLVAVYWPFIAKTSSDDAVFASFSTGDIADSKLNGFITEFVGTAILLFVAVGLYRGMFFKQSEDIANIGVGFLITALVMAVGGPTGPALNPARDLGPRIVYALCPLPHKGSAHWDYGWIPVVAPIAGGICGALLYKLAFGL ) = failed

Further cases:
Reported protein production ( IEFESRTTDEGVAVVRPAGRLNMVAAPRLRELLRDVVDGGTTCVVVDLSATDFIDSSGLGALIAGLKAARQAGGDLRIAQPTEQVETVLALTNLNRVLRTHDSVDAAFD ) = failed

Reported protein production ( MLLEQQKQLISLIQAAVAQCLPEAQAQVQLERPKVAAHGDIATNVAMQLAKPARRNPRELAQGIVDALMAQPQARELIQDAEIAGPGFINFRLTPAARQAVVQAVASQADA ) = failed

====

assay: label from the status in PepcDB records
ASSAY READOUT: protein production

Reported protein production ( MANDKRTSPPTPRQPAKGGAAGKRQGHAAEGTRKPRARGEERKEKPADGRSATALTANERREIDDKQPPRAAVLHEVIRVQGEHELQRTLAALWWSAVAAGLTIGLSLMGMGLFRAALPEQEWAIIVSSFGYPMGFLAVILARQQLFTENTLTAVLPVMTEPTLEKAWQLLRLWSVVLFGNIVGTLLFAWAVLHLPIFNEAADAAFLEIGREVMHNDLAQMFAKGIVSGWMIATMVWLIPAAEGAKIWIIAMVTYLMALGSFTHIVVGSAEVGYLAFAGEIGWAEFLLKFALPTLGGNIVGGSLIFALISHAQIRSEG ) = failed

Reported protein production ( MRDLLNDLSEGLSHPDPILRAQIQMQKPLPKRFYKDVTVADVEEGGFTILLDGKPLRTPAKKPLVAPSRALADLLRDEWDAQKEVVNPVVMPVSRHVNTAIDGIASDTQAVFEDILRFSSSDLLCYRAGDPEALVARQTDYWDPVLDWATNVLGARFILVEGVMHRDQPREAIAAFAVTLKKYDTPIALAALHTMTSLTGSAILALALAEGELTLEEAWALAHLDEDWTAEQWGEDEEALERRAVRLIDMRAALNVLESLKSASLEHHHHHH ) = failed

Reported protein production ( MVARDTTAPQVKIVNPVTGNVSGSNVPISVNASDDSGASGITYALYIDGVLKATGKGSTLGYNWNIRNVAAGAHTVQVVAKDAAGNSASSSVSVTVVKLEHHHHHH ) = failed

Entry source: a protein production outcome set (Wang et al. 2014)
